system: HEK-293T; assay: Multiplex assay against HEK293T; format: toxicity, cell-based; conditions: human, 24 h, 1 µM, compound concentration 1 uM, replicate 2
MEASUREMENT TYPE: Population Normal (%)

CNc1nc(NCc2ccc(NS(C)(=O)=O)cc2Cl)cc(-c2ccccn2)n1 :: 94
Cc1csc2c(N[C@@H](C)CN3CCN(S(=O)(=O)c4ccc(Cl)c(Cl)c4)CC3)ncnc12 :: 92
CN(C)CC#Cc1ccc(OCCCc2sc(N3CCc4cccc(C(=O)Nc5nc6ccccc6s5)c4C3)nc2C(=O)O)c(F)c1 [A-1155463] :: 97
Cl.N#Cc1ccc2[nH]cc(CCCCN3CCN(c4ccc5oc(C(N)=O)cc5c4)CC3)c2c1 [VILAZODONE HYDROCHLORIDE] :: 94
CN1CCC[C@@H]1CCO[C@](C)(c1ccccc1)c1ccc(Cl)cc1.O=C(O)/C=C/C(=O)O [CLEMASTINE FUMARATE] :: 98
C[C@@H](NCCCc1cccc(C(F)(F)F)c1)c1cccc2ccccc12.Cl [CINACALCET HYDROCHLORIDE] :: 95
CC(C)(O)CNc1ncc(-c2ccnc(Nc3ccnc(Cl)c3)n2)c(CC2CC2)n1 :: 94
C=CC(=O)Nc1cccc(C(=O)Nc2ccc(Nc3cc(-c4[nH]c(SC)nc4C)ccn3)cc2)c1 :: 98

====

tested on: HEK-293T; test: Multiplex assay against HEK293T; type: toxicity, cell-based; conditions: human, 24 h, 10 µM, compound concentration 10 uM, replicate 2
Reported Population Hoechst High Intensity Objects (%) values for a set of molecules
MEASUREMENT TYPE: Population Hoechst High Intensity Objects (%)

CC(C)NCC(O)COc1ccc(CCOCC2CC2)cc1.Cl (stereo not drawn) [BETAXOLOL HYDROCHLORIDE] :: 5
COc1ncc(-c2ccc3nccc(-c4ccnnc4)c3c2)cc1NS(=O)(=O)c1ccc(F)cc1F :: 11
Cl.N#Cc1ccc2[nH]cc(CCCCN3CCN(c4ccc5oc(C(N)=O)cc5c4)CC3)c2c1 [VILAZODONE HYDROCHLORIDE] :: 25
CC[C@H](C)C(=O)O[C@H]1C[C@@H](C)C=C2C=C[C@H](C)[C@H](CC[C@@H]3C[C@@H](O)CC(=O)O3)[C@H]21 :: 4
CN1CCCC(n2nc(Cc3ccc(Cl)cc3)c3ccccc3c2=O)CC1.Cl (stereo not drawn) [AZELASTINE HYDROCHLORIDE] :: 7
CNc1nc(NCc2ccc(NS(C)(=O)=O)cc2Cl)cc(-c2ccccn2)n1 :: 6
CN(C)C(=O)/C(C#N)=C/c1ccc(-c2nc3cnc4[nH]ccc4c3n2C2CCCCC2)o1 :: 30
c1cn2cc(-c3ccc4cn[nH]c4c3)nc(Nc3ccc(N4CCOCC4)cc3)c2n1 :: 20

====

tested on: Fibroblast; test: Multiplex assay against human fibroblast; type: toxicity, cell-based; conditions: 12 h, 10 µM, compound concentration 10 uM, replicate 2
So basically, if Population Mitotic Cells (%) comes in under 60% it's Satisfied, and if it's 60% or more it's Not satisfied.

Cc1cc(C)cc(-c2cnc3cc(Cl)c(-c4cccc(O)c4)cc3c2OCCCN)c1 :: Satisfied
COc1ncc(-c2ccc3nccc(-c4ccnnc4)c3c2)cc1NS(=O)(=O)c1ccc(F)cc1F [OMIPALISIB] :: Satisfied
CC(C)NCC(O)COc1ccc(CCOCC2CC2)cc1.Cl (configuration not stated) [BETAXOLOL HYDROCHLORIDE] :: Not satisfied
Cc1nc(-c2ccc(-c3ccc(C(=O)N4CCc5cc6c(cc54)C4(CCN(C)CC4)CO6)cc3)c(C)c2)no1 [SB-224289] :: Satisfied
CN1CCC[C@@H]1CCO[C@](C)(c1ccccc1)c1ccc(Cl)cc1.O=C(O)/C=C/C(=O)O [CLEMASTINE FUMARATE] :: Satisfied
OC1(c2ccc(Cl)cc2)CCN(Cc2c[nH]c3ccccc23)CC1 :: Satisfied
Cc1[nH]c(/C=C2\C(=O)Nc3ccc(S(=O)(=O)N(C)c4cccc(Cl)c4)cc32)c(C)c1C(=O)N1CCN(C)CC1 :: Not satisfied
COc1cc2nccc(Oc3ccc(NC(=O)Nc4cc(C)on4)c(Cl)c3)c2cc1OC.O :: Satisfied
Cc1csc2c(N[C@@H](C)CN3CCN(S(=O)(=O)c4ccc(Cl)c(Cl)c4)CC3)ncnc12 :: Satisfied
Cc1nc(-c2cn3c(n2)-c2ccc(-c4cnn(C(C)(C)C(N)=O)c4)cc2OCC3)n(C(C)C)n1 [TASELISIB] :: Not satisfied
CNc1nc(NCc2ccc(NS(C)(=O)=O)cc2Cl)cc(-c2ccccn2)n1 :: Satisfied
c1cn2cc(-c3ccc4cn[nH]c4c3)nc(Nc3ccc(N4CCOCC4)cc3)c2n1 [ENTOSPLETINIB] :: Satisfied
Cc1c(-c2ccc(O)cc2)n(Cc2ccc(OCCN3CCCCCC3)cc2)c2ccc(O)cc12 [BAZEDOXIFENE] :: Satisfied
Cl.N#Cc1ccc2[nH]cc(CCCCN3CCN(c4ccc5oc(C(N)=O)cc5c4)CC3)c2c1 [VILAZODONE HYDROCHLORIDE] :: Satisfied
C[C@@H](NCCCc1cccc(C(F)(F)F)c1)c1cccc2ccccc12.Cl [CINACALCET HYDROCHLORIDE] :: Satisfied
